- test.method.notes: Human HepG2 cell viability assay in 384 well format
- Format: toxicity, cell-based
- Set-up: dose 125 nL, time 70.5 hour; concentration not given beside the values
- condition.parameters: HepG2 cells, read-out: Inhibition
Measured cytotoxicity at 70.5 h values are reported for all entries that follow.
Your answer should be a plain number; it is taken to be in %.

Example results:
>>> reported_value("CN1CCN(C(=O)c2csnn2)c2ccccc21")
20.8
>>> reported_value("CCc1nc2ccccc2c(=O)n1CC1(O)CCNCC1")
-11.1
>>> reported_value("NCCSc1nccc(-c2cnc(C3CC3)nc2-c2ccco2)n1")
21.8
>>> reported_value("CSc1ccc2cc(CN(C)CCO)c(=O)[nH]c2c1")
-16.3

Okay, next one:
Reported cytotoxicity at 70.5 h of "CC(C)c1ccc(OCCNC(=O)c2ccoc2)cc1" : 23.9

====

- test.method.notes: Human HepG2 cell viability assay in 384 well format
- Assay type: toxicity, cell-based
- Design: dose 125 nL, time 70.5 hour; concentration not given beside the values
- condition.parameters: HepG2 cells, read-out: Inhibition
experimental.readout: cytotoxicity at 70.5 h (%)
Your answer should be a plain number; it is taken to be in %.

Example results:
>>> reported_value("CCC(=O)NS(=O)(=O)c1cccnc1Nc1cccc(Cl)c1Cl")
31.6
>>> reported_value("Cc1nc(NCCC23CCCN2CCC3)cc(C2CCCNC2)n1 (stereo unspecified)")
-3.41
>>> reported_value("Cc1cc(CNc2ccnn2C)ccc1-n1cncn1")
-1.29

Reported cytotoxicity at 70.5 h of Cc1noc(C)c1CC(=O)NCC(C)N1CCOCC1 (stereo unspecified) : -2.99

Reported cytotoxicity at 70.5 h of "COCC[C@]1(O)CCN(c2ncc(Cl)cc2F)C[C@H]1C" : -12.3

====

- test.method.notes: Human HepG2 cell viability assay in 384 well format
- Assay type: toxicity, cell-based
- Set-up: dose 125 nL, time 70.5 hour; concentration not given beside the values
- condition.parameters: HepG2 cells, read-out: Inhibition
Measured cytotoxicity at 70.5 h values are reported for all entries that follow.
Your answer should be a plain number; it is taken to be in %.

Example results:
>>> reported_value("O=c1cc(CN2CC[C@@]3(O)CCCC[C@H]3C2)c2cccc3c2n1CCC3")
-11.8
>>> reported_value("Cc1nc(C)n(CC2CCCN(CCC(=O)N3CCCCC3)C2)n1 (centres undefined)")
-1.55

Reported cytotoxicity at 70.5 h of "CCc1nnc2n1CCN(C(=O)CN(CC)CC)C2" : 44.6

Reported cytotoxicity at 70.5 h of "CN(Cc1cccnc1)[C@@H]1CN(C(=O)c2ccco2)[C@@H]2CCCO[C@H]12" : -10.7

====

Measured cytotoxicity at 70.5 h values are reported for all entries that follow.
- test.method.notes: Human HepG2 cell viability assay in 384 well format
- Assay type: toxicity, cell-based
- Design: dose 125 nL, time 70.5 hour; concentration not given beside the values
- condition.parameters: HepG2 cells, read-out: Inhibition
Your answer should be a plain number; it is taken to be in %.

Example results:
>>> reported_value("CCOc1ccccc1N(C)C(=O)c1cscn1")
0.806
>>> reported_value("COC(=O)c1ccc(C2SCC(=O)Nc3c2cnn3C(C)(C)C)cc1 (centres undefined)")
-13.2
>>> reported_value("COc1ccc(CN(Cc2cncn2C)CC2CCCO2)cc1 (centres undefined)")
-7.47

Reported cytotoxicity at 70.5 h of "O=C(c1cccn1-c1ccc2c(c1)OCCO2)N1CCCC1" : -11.9

====

- test.method.notes: Human HepG2 cell viability assay in 384 well format
- Assay type: toxicity, cell-based
- Design: dose 125 nL, time 70.5 hour; concentration not given beside the values
- condition.parameters: HepG2 cells, read-out: Inhibition
Measured cytotoxicity at 70.5 h values are reported for all entries that follow.
Your answer should be a plain number; it is taken to be in %.

Example results:
>>> reported_value("O=C1CCSCC(C(=O)N2CCOCC2)N1 (configuration not stated)")
0.753
>>> reported_value("CC(C)NC(=O)[C@H]1C[C@@H]2[C@@H](C1)OCCN2Cc1ccsc1")
-6.32
>>> reported_value("O=C(c1cn(-c2cc(N3CCSCC3)ncn2)cn1)N1CCOCC1")
23.9
>>> reported_value("N#Cc1ccc(N2CCCN(CC(=O)N3CCC3)CC2)cc1")
-2.99
>>> reported_value("COc1ccc(CN(Cc2ccsc2)CC2CCCO2)cn1 (configuration not stated)")
-2.5
>>> reported_value("Cc1cc(C)n(C2CCCN(C(=O)c3cn4cccnc4n3)C2)n1 (configuration not stated)")
-6.47

Reported cytotoxicity at 70.5 h of CCc1n[nH]c(C2CN(C(=O)Cc3ccc(C)nc3)CCO2)n1 (configuration not stated) : 9.01

Reported cytotoxicity at 70.5 h of "O=c1c2cnc(N3CCCCC3)nc2ccn1-c1ccccc1F" : 8.21

Reported cytotoxicity at 70.5 h of "COCCc1noc(-c2ccc(=O)[nH]c2)n1" : 2.52

Reported cytotoxicity at 70.5 h of c1nc(CCC2CCCN2)cc(N2CCCCCC2)n1 (configuration not stated) : 0.142

Reported cytotoxicity at 70.5 h of "CCN(C)c1ncnc2c1CCN(Cc1ccc(F)cc1)CC2" : 19.9

====

- test.method.notes: Human HepG2 cell viability assay in 384 well format
- Assay type: toxicity, cell-based
- Design: dose 125 nL, time 70.5 hour; concentration not given beside the values
- condition.parameters: HepG2 cells, read-out: Inhibition
experimental.readout: cytotoxicity at 70.5 h (%)
Your answer should be a plain number; it is taken to be in %.

>>> reported_value("O=C(c1ccc(F)cc1)N1C[C@@H]2COC[C@]2(COc2cccnc2)C1")
14.6
>>> reported_value("N#Cc1cccc(C(=O)N2CCn3c(Cn4cncn4)cnc3C2)c1")
-5.58
>>> reported_value("FC(F)(F)c1ccc(CNC[C@H]2COCc3nc4cccnc4n32)cc1")
-3.68
>>> reported_value("O=C(c1ccc(Cn2ccccc2=O)o1)N1CCC2(CC1)OCCO2")
-2.65

Okay, next one:
Reported cytotoxicity at 70.5 h of "Cc1nc(NCc2ccc(C)o2)cc(C(=O)N2CCOCC2)n1" : -9.84

====

- test.method.notes: Human HepG2 cell viability assay in 384 well format
- Type: toxicity, cell-based
- Design: dose 125 nL, time 70.5 hour; concentration not given beside the values
- condition.parameters: HepG2 cells, read-out: Inhibition
experimental.readout: cytotoxicity at 70.5 h (%)
Your answer should be a plain number; it is taken to be in %.

Example results:
>>> reported_value("CCOC(=O)CC1CCCCN1C(=O)c1cccc2ccnn12 (configuration not stated)")
-6.11
>>> reported_value("CCC(C)N(Cc1cccnc1)C(=O)c1ccc(NS(=O)(=O)CC)cc1 (configuration not stated)")
-1.92
>>> reported_value("CC(NC(=O)CN(C)S(C)(=O)=O)c1ccc(F)cc1 (configuration not stated)")
-11.2
>>> reported_value("O=C1[C@H]2CC[C@H](CN(S(=O)(=O)c3ccccc3)C2)N1Cc1cscn1")
8.27
>>> reported_value("FC(F)(F)COc1ccc(CSCc2ccon2)cn1")
-8.78
>>> reported_value("O=C(NCc1cc2n(n1)CCCN(Cc1ccc(CO)o1)C2)C1CCC1")
18.2

Reported cytotoxicity at 70.5 h of Cc1nc(C)n(CC2CCCN(CCc3ccccc3)C2)n1 (configuration not stated) : 4.16

Reported cytotoxicity at 70.5 h of CN1CCOC(C(=O)Nc2nc(-c3ccc4c(c3)CCC4)n[nH]2)C1 (configuration not stated) : -6.75

Reported cytotoxicity at 70.5 h of "CN1CCCN(Cc2nc(Cc3ccccc3)n[nH]2)CC1" : -3.87

Reported cytotoxicity at 70.5 h of "Cc1ccc(-c2cc(CN(CC(N)=O)CC(C)C)on2)cc1" : -2.81

Reported cytotoxicity at 70.5 h of OC(COc1ccccc1)CN1CCN(c2nccs2)CC1 (configuration not stated) : 0.888

Reported cytotoxicity at 70.5 h of "O=C1CCCN1Cc1nnn2c1CN(c1ncccn1)CCC2" : -9.38

Reported cytotoxicity at 70.5 h of "CCNc1cc2c(nn1)CCN(C(=O)c1cccc3c1OCCO3)C2" : -9.67

Reported cytotoxicity at 70.5 h of Cc1nccc(C2CCCCN2Cc2cccc(F)c2)n1 (configuration not stated) : -12.9

Reported cytotoxicity at 70.5 h of Cc1cc(C)n(CC2CCCN2C(=O)c2cnc3n[nH]c(C)c3c2)n1 (configuration not stated) : 1.22

====

Measured cytotoxicity at 70.5 h values are reported for all entries that follow.
- test.method.notes: Human HepG2 cell viability assay in 384 well format
- Format: toxicity, cell-based
- Parameters: dose 125 nL, time 70.5 hour; concentration not given beside the values
- condition.parameters: HepG2 cells, read-out: Inhibition
Your answer should be a plain number; it is taken to be in %.

Example results:
>>> reported_value("COc1ccc(-c2nc(CN3CCOCS3(=O)=O)c(C)o2)cc1")
-0.0234
>>> reported_value("COCCN1CCCC2(CCN(c3nccc4ccccc34)C2)C1=O (stereo not drawn)")
11.2
>>> reported_value("COc1ccc(C)cc1CCNS(=O)(=O)c1ccc2c(c1)CCC(=O)N2")
-18.5
>>> reported_value("CC(=O)N1CC2(CCN(C(=O)c3cccc4[nH]ccc34)CC2)C1")
-8.74
>>> reported_value("CCc1ccc(O)c(C(=O)N2CCCN(CC(=O)N(CC)CC)CC2)c1")
-0.346
>>> reported_value("CCn1ccnc1CN1CCN(c2cc(C)nc(C3CCCN3)c2)CC1 (stereo not drawn)")
-5.1
>>> reported_value("CC(C)C[C@H](N)c1nnc(SCC(N)=O)o1")
24.4
>>> reported_value("COCc1cnc2n1CCN(S(=O)(=O)c1c(C)nn(C)c1C)C2C (stereo not drawn)")
29

Reported cytotoxicity at 70.5 h of O=C(NC1CC(=O)N(Cc2cccc(F)c2)C1)c1ccncc1 (stereo not drawn) : -8.7

Reported cytotoxicity at 70.5 h of "N#Cc1cn(CC(=O)NC2CC2)c2ccc(Br)cc2c1=O" : -7.46

Reported cytotoxicity at 70.5 h of "NC(=O)c1ccc(C(=O)N(Cc2ccc(O)cc2)CC2CC2)cc1" : 6.44

// provenance: ChEMBL document CHEMBL3507680
